Molecular target: Bevacizumab (Homo sapiens)
Construct: 0.5 mg/ml IgG in PBS pH 7.3; ligand immobilized on SEPHAR; Bevacizumab Yield; other: mass eluted (glycine pH 2.5) / mass injected; kd (dissociation constant, Langmuir isotherm); other: Bevacizumab 0.05-5 mg/ml in PBS pH 7.3, 25° C., at least 3 h; qm (maximum capacity); other: mg Bevacizumab per ml of resin; Langmuir isotherm; t0; fused on or other part: Humanized anti-VEGF-A VH domain joined N-terminally to the IGHG1 constant region (engineered, no UniProt entry)
Assay: Langmuir isotherms by batch adsorption
Format: binding
Settings: read-out: kd (dissociation constant, Langmuir isotherm); Bevacizumab 0.05-5 mg/ml in PBS pH 7.3, 25° C., at least 3 h
measured-property: Kd (µM)
Numbers only, in µM.

Ask: Dear colleague, I am looking for the recorded Kd of the following compound: NCCCn1cc(-c2ccc(C(=O)Nc3nnc(-c4ccco4)s3)cc2)nn1
Result: 713

----------
Please respond with reported h-poly-IgG Bound for every item in the list.
System: poly-IgG from human serum (h-poly-IgG)
Experiment: Microtiter plate chromatography of resins: binding and elution of human poly-IgG
Conditions: fraction of injected protein bound; 0.5 mg/ml IgG in PBS pH 7.3
One number for each entry, in %.

Below, 5 compounds whose answers are already recorded.
| compound | measured-property | result-number |
| --- | --- | --- |
| NCCOCCOCCn1cnc2cc(C(=O)Nc3nc(-c4ccccn4)cs3)ccc21 | h-poly-IgG Bound | 100 |
| NCCCn1cnc2cc(C(=O)Nc3nnc(C4CC4)s3)ccc21 [Ligand L35] | h-poly-IgG Bound | 100 |
| Cc1nc2cc(C(=O)Nc3nnc(-c4ccco4)s3)ccc2n1CCOCCOCCNC(=O)CC[C@H](N)C(=O)NCCOCCOCCn1c(C)nc2cc(C(=O)Nc3nnc(-c4ccco4)s3)ccc21 [Ligand L54] | h-poly-IgG Bound | 100 |
| NCCCn1cnc2cc(C(=O)Nc3nc(-c4ccccn4)cs3)ccc21 [Ligand L23] | h-poly-IgG Bound | 100 |
| CCc1nnc(NC(=O)c2ccc3c(c2)ncn3CCCN)s1 [Ligand L07] | h-poly-IgG Bound | 94 |

Parameter requested: h-poly-IgG Bound. Apply to each item below.
1. Cc1nc2cc(C(=O)Nc3nc(-c4ccncc4)cs3)ccc2n1CCCN [Ligand L51]
2. NCCCn1cnc2cc(C(=O)Nc3nc(-c4ccncc4)cs3)ccc21 [Ligand L47]
3. NCCCOc1ccc(C(=O)Nc2nnc(-c3ccco3)s2)cc1 [Ligand L20]
4. CCc1nc2cc(C(=O)Nc3nc(-c4ccccn4)cs3)ccc2n1CCCN [Ligand L43]
5. NCCCn1cnc2cc(C(=O)Nc3nncs3)ccc21 [Ligand L13]

Result:
1. 97
2. 100
3. 100
4. 100
5. 97

----------
System: Cetuximab
Assay: Microtiter plate chromatography of resins: binding and elution of Cetuximab
Conditions: fraction of injected protein bound; 0.5 mg/ml IgG in PBS pH 7.3
measured-property: Cetuximab Bound (%)
Give bare numbers, in %.

Below, 3 compounds whose answers are already recorded.
| structure-notation | measured-property | result-number |
| --- | --- | --- |
| NCCCNc1ccc(C(=O)Nc2nc(-c3ccccn3)cs2)cn1 | Cetuximab Bound | 100 |
| CCc1nnc(NC(=O)c2ccc3c(c2)ncn3CCCN)s1 | Cetuximab Bound | 100 |
| NCCOCCOc1ccc(C(=O)Nc2nnc(-c3ccco3)s2)cc1 | Cetuximab Bound | 100 |

Parameter requested: Cetuximab Bound. Apply to each item below.
1. Cn1c(CCCCCN)nc2cc(C(=O)Nc3nnc(-c4ccco4)s3)ccc21
2. CCc1nc2cc(C(=O)Nc3nc(-c4ccccn4)cs3)ccc2n1CCCN

Result:
[100, 100]

Ask: Dear colleague, I am looking for the recorded Cetuximab Bound of the following compound: NCCCn1cnc2cc(C(=O)Nc3nncs3)ccc21
Result: 100

----------
Target: Bevacizumab (Homo sapiens, UniProt P01857)
Construct: 0.5 mg/ml IgG in PBS pH 7.3; ligand immobilized on SEPHAR; Bevacizumab Yield; other: mass eluted (glycine pH 2.5) / mass injected; kd (dissociation constant, Langmuir isotherm); other: Bevacizumab 0.05-5 mg/ml in PBS pH 7.3, 25° C., at least 3 h; qm (maximum capacity); other: mg Bevacizumab per ml of resin; Langmuir isotherm; t0; fused on or other part: Humanized anti-VEGF-A VH domain joined N-terminally to the IGHG1 constant region (engineered, no UniProt entry)
Assay: Uptake kinetics by batch adsorption (time-scale of binding)
Conditions: time after which 80% of equilibrium saturation occurred; 0.75 mg/ml Bevacizumab in PBS, 25° C.
measured-property: t0.8 (time-scale of binding)
// return the numeric value with its unit appended

| structure-notation | measured-property | result |
| --- | --- | --- |
| Cc1nc2cc(C(=O)Nc3nnc(-c4ccco4)s3)ccc2n1CCOCCOCCN | t0.8 (time-scale of binding) | 8.9 min |
| Cn1nc(C(=O)Nc2ccc3c(c2)ncn3CCCN)c2ccccc21 | t0.8 (time-scale of binding) | 9.2 min |
| Cc1nc2cc(C(=O)Nc3nnc(-c4ccco4)s3)ccc2n1CCCN | t0.8 (time-scale of binding) | 7.8 min |
| Cn1c(CCCCCN)nc2cc(C(=O)Nc3nnc(-c4ccco4)s3)ccc21 | t0.8 (time-scale of binding) | 5.3 min |
| NCCOCCOCCn1cnc2cc(C(=O)Nc3nc(-c4ccccn4)cs3)ccc21 | t0.8 (time-scale of binding) | 9.0 min |
| NCCCn1cnc2cc(C(=O)Nc3nc(-c4ccccn4)cs3)ccc21 | t0.8 (time-scale of binding) | 7.7 min |

Parameter requested: t0.8 (time-scale of binding). Apply to each item below.
1. NCCCn1cnc2cc(NC(=O)c3cn4ccsc4n3)ccc21
2. Cc1nc2cc(C(=O)Nc3nc(-c4ccncc4)cs3)ccc2n1CCCN
3. NCCCn1cnc2cc(C(=O)Nc3nc(-c4ccncc4)cs3)ccc21

Result:
1: 9.3 min; 2: 8.8 min; 3: 5.6 min

----------
System: Palivizumab
Assay: Microtiter plate chromatography of resins: binding and elution of Palivizumab
Settings: L55-73: estimated values based on the knowledge obtained from L01-L54
measured-property: Palivizumab Bound

| structure-notation | Palivizumab Bound |
| --- | --- |
| CCc1nc2cc(C(=O)Nc3nc(-c4ccco4)ns3)ccc2n1CCCN | >80% |
| Cc1nc2cc(C(=O)Nc3ccc(-c4ccco4)nn3)ccc2n1CCCN | >60% |
| Cc1nc2cc(C(=O)Nc3nnc(-c4ncco4)s3)ccc2n1CCCN | >60% |
| Cc1nc2cc(C(=O)Nc3nc(-c4ccco4)ns3)ccc2n1CCCN | >80% |
| Cc1nc2cc(C(=O)Nc3nnc(-c4ccno4)s3)ccc2n1CCCN | >60% |

Parameter requested: Palivizumab Bound. Apply to each item below.
1. CCc1nc2cc(C(=O)Nc3ncc(-c4ccco4)s3)ccc2n1CCCN
2. CCc1nc2cc(C(=O)Nc3nnc(-c4ccoc4)s3)ccc2n1CCCN
3. Cc1nc2cc(C(=O)Nc3ncc(-c4ccco4)s3)ccc2n1CCCN
4. Cc1nc2cc(C(=O)Nc3nc(-c4ccco4)cs3)ccc2n1CCCN

Result:
>80%
>80%
>80%
>80%

----------
Molecular target: Bevacizumab (Homo sapiens, UniProt P01857)
Construct: 0.5 mg/ml IgG in PBS pH 7.3; ligand immobilized on SEPHAR; Bevacizumab Yield; other: mass eluted (glycine pH 2.5) / mass injected; kd (dissociation constant, Langmuir isotherm); other: Bevacizumab 0.05-5 mg/ml in PBS pH 7.3, 25° C., at least 3 h; qm (maximum capacity); other: mg Bevacizumab per ml of resin; Langmuir isotherm; t0; fused on or other part: Humanized anti-VEGF-A VH domain joined N-terminally to the IGHG1 constant region (engineered, no UniProt entry)
Assay: Microtiter plate chromatography of resins: binding and elution of Bevacizumab
Details: mass eluted (glycine pH 2.5) / mass injected
measured-property: Bevacizumab Yield (%)
One number for each entry, in %.

Below, 3 molecules whose answers are already recorded.
| structure-notation | target-entity | Bevacizumab Yield / % |
| --- | --- | --- |
| Cn1nc(NC(=O)c2ccc3c(c2)nnn3CCCN)c2ccccc21 | Bevacizumab (Homo sapiens, UniProt P01857) | 84 |
| N[C@@H](CCC(=O)NCCOCCOCCn1cnc2cc(C(=O)Nc3nnc(-c4ccco4)s3)ccc21)C(=O)NCCOCCOCCn1cnc2cc(C(=O)Nc3nnc(-c4ccco4)s3)ccc21 | Bevacizumab (Homo sapiens, UniProt P01857) | 96 |
| NCCCn1c(=O)[nH]c2cc(C(=O)Nc3nnc(-c4ccco4)s3)ccc21 | Bevacizumab (Homo sapiens, UniProt P01857) | 101 |

Parameter requested: Bevacizumab Yield. Apply to each item below.
1. NCCCn1cnc2cc(C(=O)Nc3nc4ccccc4o3)ccc21
2. Cc1cnc(NC(=O)c2ccc3c(c2)ncn3CCCN)s1
3. NCCCNc1ccc(C(=O)Nc2nnc(-c3ccco3)s2)cn1
4. NCCOCCOCCn1cnc2cc(C(=O)Nc3nc(-c4ccccn4)cs3)ccc21
5. NCCCn1cnc2cc(C(=O)Nc3nc4ccccc4s3)ccc21
6. Cc1nc2cc(C(=O)Nc3nnc(-c4ccco4)s3)ccc2n1CCOCCOCCN
7. NCCCn1cnc2cc(C(=O)Nc3nnc(C4CC4)s3)ccc21

Result:
1. 100
2. 100
3. 98
4. 103
5. 100
6. 97
7. 104

Parameter requested: Bevacizumab Yield. Apply to each item below.
1. CCc1nc2cc(C(=O)Nc3nc(-c4ccccn4)cs3)ccc2n1CCCN
2. CCc1nc2cc(C(=O)Nc3nnc(-c4ccco4)s3)ccc2n1CCCN
3. Cn1nc(NC(=O)c2ccc3c(c2)ncn3CCCN)c2ccccc21
4. NCCOCCOCCn1cnc2cc(C(=O)Nc3nnc(-c4ccco4)s3)ccc21

Result:
95
88
101
99

Parameter requested: Bevacizumab Yield. Apply to each item below.
1. Cn1nc(C(=O)Nc2ccc3c(c2)C(=O)N(CCCN)CCO3)c2ccccc21
2. CCSc1nnc(NC(=O)c2ccc3c(c2)ncn3CCCN)s1
3. NCCCn1c(=O)c(=O)[nH]c2cc(C(=O)Nc3nnc(-c4ccco4)s3)ccc21
4. NCCCn1cnc2cc(C(=O)Nc3nccs3)ccc21
5. COc1nc2cc(C(=O)Nc3nnc(-c4ccco4)s3)ccc2n1CCCN

Result:
[92, 104, 95, 96, 93]
